# test-protocol: AUC (0 to t) in human NCI-H2228 cells xenografted BALB/c nu/nu mouse plasma at 50 mg/kg, po qd for 23 days by UPLC-MS/MS analysis
# Type: ADME, organism-based
# Set-up: time 23 day, dose 50 mg/kg, route po
readout-label: AUC(0-t) at 552 h

chemical-structure	readout-label	recorded-result
COc1cc(N2CCC(N(C)C)CC2)ccc1Nc1ncc(Cl)c(Nc2ccc3c(c2)B(O)OC3)n1	AUC(0-t) at 552 h	15400 ng·h/mL
